- methodSummary: Half life in dog
- Assay type: ADME, organism-based, Canis lupus familiaris
- assaySetup: in vivo
measuredAttribute: half-life (h)
Give just the numeric value; h need not be written.

## Task Given the entry `CC[C@H](NC(=O)c1c(C[S@+](C)[O-])c(-c2ccccc2)nc2ccccc12)c1ccccc1` , report its measured half-life.
## Result 6.7

* * *

- methodSummary: Clearance in rat plasma
- Assay type: ADME, organism-based
measuredAttribute: clearance (mL/min/kg)
A number alone suffices; assume mL/min/kg.

## Task Field request: clearance | item: `CC[C@H](NC(=O)c1c([S@+](C)[O-])c(-c2ccccc2)nc2ccccc12)c1ccccc1`
## Result 60
